Data origin, for the record: patent US9751888B2

Molecular target: human Class I PI3 kinase β (Homo sapiens (Human))
Sequence (P42338 whole entry, looked up, canonical isoform): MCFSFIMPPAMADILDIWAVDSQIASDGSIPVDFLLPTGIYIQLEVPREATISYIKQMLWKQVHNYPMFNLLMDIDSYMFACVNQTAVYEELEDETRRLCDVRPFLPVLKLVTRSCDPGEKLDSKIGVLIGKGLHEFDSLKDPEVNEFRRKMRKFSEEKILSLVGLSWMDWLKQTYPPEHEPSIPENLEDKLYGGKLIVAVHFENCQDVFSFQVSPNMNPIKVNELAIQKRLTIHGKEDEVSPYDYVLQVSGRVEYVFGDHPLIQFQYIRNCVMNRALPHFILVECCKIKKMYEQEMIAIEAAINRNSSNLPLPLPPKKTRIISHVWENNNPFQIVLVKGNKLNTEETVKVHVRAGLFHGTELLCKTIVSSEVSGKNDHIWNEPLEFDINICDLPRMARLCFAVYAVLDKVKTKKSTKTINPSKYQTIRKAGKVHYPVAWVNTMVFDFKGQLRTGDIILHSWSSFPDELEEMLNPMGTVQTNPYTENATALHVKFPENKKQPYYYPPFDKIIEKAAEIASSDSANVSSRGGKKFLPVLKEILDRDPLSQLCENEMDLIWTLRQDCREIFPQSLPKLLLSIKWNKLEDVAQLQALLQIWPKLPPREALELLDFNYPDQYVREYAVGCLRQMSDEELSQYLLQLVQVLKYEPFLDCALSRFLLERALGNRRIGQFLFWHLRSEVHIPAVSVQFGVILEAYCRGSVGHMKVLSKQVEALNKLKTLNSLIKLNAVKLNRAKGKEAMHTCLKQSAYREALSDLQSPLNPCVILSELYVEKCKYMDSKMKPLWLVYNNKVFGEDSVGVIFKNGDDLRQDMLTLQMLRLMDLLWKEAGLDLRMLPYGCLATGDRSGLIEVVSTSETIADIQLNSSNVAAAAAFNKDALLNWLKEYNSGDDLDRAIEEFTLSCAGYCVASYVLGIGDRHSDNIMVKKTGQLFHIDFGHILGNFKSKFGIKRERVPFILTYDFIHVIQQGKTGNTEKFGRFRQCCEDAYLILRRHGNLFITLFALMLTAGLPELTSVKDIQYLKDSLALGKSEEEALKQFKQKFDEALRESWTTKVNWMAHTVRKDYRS
Sequence (P27986 whole entry partner, looked up, canonical isoform): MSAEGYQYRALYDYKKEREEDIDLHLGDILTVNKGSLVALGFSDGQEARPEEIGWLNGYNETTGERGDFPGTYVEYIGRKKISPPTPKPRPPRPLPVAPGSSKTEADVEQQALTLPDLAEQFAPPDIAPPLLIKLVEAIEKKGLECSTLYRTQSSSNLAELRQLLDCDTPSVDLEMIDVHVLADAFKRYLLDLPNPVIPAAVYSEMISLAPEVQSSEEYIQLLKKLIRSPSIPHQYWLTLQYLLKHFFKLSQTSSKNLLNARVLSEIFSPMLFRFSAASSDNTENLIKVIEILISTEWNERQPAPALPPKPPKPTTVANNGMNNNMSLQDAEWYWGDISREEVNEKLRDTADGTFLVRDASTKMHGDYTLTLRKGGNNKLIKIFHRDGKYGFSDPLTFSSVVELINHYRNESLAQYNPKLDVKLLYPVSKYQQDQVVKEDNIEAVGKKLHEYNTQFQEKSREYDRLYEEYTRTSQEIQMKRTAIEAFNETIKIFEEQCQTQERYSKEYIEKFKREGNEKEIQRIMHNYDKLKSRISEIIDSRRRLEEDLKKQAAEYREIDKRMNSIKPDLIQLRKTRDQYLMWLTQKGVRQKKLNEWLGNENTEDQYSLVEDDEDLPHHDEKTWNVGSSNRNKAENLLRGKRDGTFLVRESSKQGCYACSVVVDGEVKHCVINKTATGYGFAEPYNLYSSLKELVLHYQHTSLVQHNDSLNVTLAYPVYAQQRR
Assay: PI3-Kinase Promega ADP-Glo Max assay, β isoform
Settings: 40 nM kinase, 3 mM ATP, 500 uM diC8-PtdInsP; read-out: Promega β PI3K IC50
measurement_kind: IC50

Below, 5 molecules whose answers are already recorded.
>  <smiles_input>
C[C@H](NC(=O)c1c(N)nn2cccnc12)c1cc2cccc(Cl)c2c(=O)n1CCS(N)(=O)=O

>  <assay_system>
human Class I PI3 kinase β (Homo sapiens (Human))

>  <IC50>
100 to 500 nM

$$$$
>  <smiles_input>
C[C@H](NC(=O)c1c(N)nn2cccnc12)c1cc2cccc(Cl)c2c(=O)n1-c1ccc(NS(C)(=O)=O)cc1

>  <assay_system>
human Class I PI3 kinase β (Homo sapiens (Human))

>  <IC50>
500 to 1000 nM

$$$$
>  <smiles_input>
CNS(=O)(=O)CCn1c([C@H](C)NC(=O)c2c(N)nn3cccnc23)cc2cccc(Cl)c2c1=O

>  <assay_system>
human Class I PI3 kinase β (Homo sapiens (Human))

>  <IC50>
100 to 500 nM

$$$$
>  <smiles_input>
C[C@H](NC(=O)c1c(N)nn2cccnc12)c1cc2cccc(OCC(F)(F)F)c2c(=O)n1-c1ccccc1

>  <assay_system>
human Class I PI3 kinase β (Homo sapiens (Human))

>  <IC50>
1000 to 10000 nM

$$$$
>  <smiles_input>
Cc1cccc(-n2c([C@H](C)NC(=O)c3c(N)nn4cccnc34)cc3cccc(Cl)c3c2=O)c1

>  <assay_system>
human Class I PI3 kinase β (Homo sapiens (Human))

>  <IC50>
1000 to 10000 nM

$$$$

Prompt line: Identify IC50 associated with the molecule `C[C@H](NC(=O)c1nccnc1N)c1cc2cccc(C(F)(F)F)c2c(=O)n1-c1ccccc1`
Response line: 1000 to 10000 nM

Prompt line: Identify IC50 associated with the molecule `C[C@H](NC(=O)c1c(N)nn2cccnc12)c1cc2cccc(Cl)c2c(=O)n1-c1ccccc1F`
Response line: 100 to 500 nM
